Tested on: SARS-CoV-2 gamma strain (P1, B.1.1.28)
Assay: microbe, parasite or virus in culture
Conditions: Severe acute respiratory syndrome coronavirus 2, Calu-3, 48 h
Listed here are molecules together with their documented EC50.

molecule	EC50
COC(=O)N[C@H](C(=O)N[C@@H](Cc1ccccc1)[C@@H](O)CN(Cc1ccc(-c2ccccn2)cc1)NC(=O)[C@@H](NC(=O)OC)C(C)(C)C)C(C)(C)C [ATV, atazanavir]	399 nM
CCC(CC)COC(=O)[C@H](C)N[P@](=O)(OC[C@H]1O[C@@](C#N)(c2ccc3c(N)ncnn23)[C@H](O)[C@@H]1O)Oc1ccccc1 [RDV, remdesivir]	113 nM

###

Assay: Pharmacokinetics in plasma and lungs after oral dosing
Assay type: in vivo, Swiss–Webster mice
Details: Swiss-Webster, mouse; plasma, mice, 60 mg/kg oral
experimental_endpoint: half-life (h)

> print(dat)
                            compound.string  assay.value
1  COC(=O)N[C@H](C(=O)N[C@@H](Cc1ccccc1)[C@@H](O)CN(Cc1ccc(-c2ccccn2)cc1)NC(=O)[C@@H](NC(=O)OC)C(C)(C)C)C(C)(C)C          9.9

###

Target: UniProt:P0DTD1
experimental_endpoint: Ki (µM)

> print(dat)
                            compound.string  experimental.endpoint  assay.value
1  COC(=O)N[C@H](C(=O)N[C@@H](Cc1ccccc1)[C@@H](O)CN(Cc1ccc(-c2ccccn2)cc1)NC(=O)[C@@H](NC(=O)OC)C(C)(C)C)C(C)(C)C                     Ki        0.703
